- Target Desc: protein-protein interaction between Kras and SOS1 (biotin-tagged human Kras loaded with GDP, His-tagged human SOS1) (Homo sapiens (Human), UniProt P01116, G12D)
- Protocol: Protein-protein interaction inhibition between Kras and SOS1 (KrasG12D-SOS PPI) using AlphaScreen;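 note: kras produced in E. coli, Ni-coupled donor beads and streptavidin acceptor beads, excitation 680 nm with emission detected at 520–620 nm via singlet oxygen transfer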
- Assay type: biochemical
- Condition: AlphaScreen; biotin-tagged human Kras loaded with GDP, His-tagged human SOS1; read-out: KRAS G12D-SOS PPI IC50
Bridge positions count the residues as written; N and C are the ends. Square brackets hold non-standard residues; d marks the D form. Peptide text beside a SMILES is read from it. * marks the point of attachment. hPhe(3-Cl-4-CF3) = N[C@@H](CCc1ccc(C(F)(F)F)c(Cl)c1)C(=O)O; 3Oxa8azabicyclo(3.2.1)octane = C1CC2COCC1N2*; NMePhe(3-Cl) = CN[C@@H](Cc1cccc(Cl)c1)C(=O)O; NMeGly(cPent) = CN[C@H](C(=O)O)C1CCCC1; NMeCha = CN[C@@H](CC1CCCCC1)C(=O)O; NEtLeu = CCN[C@@H](CC(C)C)C(=O)O; NMeD = CN[C@@H](CC(=O)O)C(=O)O; NMeV = CN[C@H](C(=O)O)C(C)C; NMeS = CN[C@@H](CO)C(=O)O; NMeA = CN[C@@H](C)C(=O)O; Piperidide = C1CCN(*)CC1; Ac5c = NC1(C(=O)O)CCCC1; Aze = O=C(O)[C@@H]1CCN1; Sar = CNCC(=O)O; Propyl = CCC*
Consider the following molecules and their measured IC50 readings.
Write the value in nM as a bare number.

Molecule	IC50 (nM)
CCCOC[C@H]1C(=O)N(C)CC(=O)N[C@@H](CCc2ccc(C(F)(F)F)c(Cl)c2)C(=O)N2CCC[C@H]2C(=O)NC2(CCCC2)C(=O)N(C)[C@@H](C2CCCC2)C(=O)N(C)[C@H](C(=O)N2C3CCC2COC3)CC(=O)N(CC)[C@@H](CC(C)C)C(=O)N[C@@H]([C@@H](C)CC)C(=O)N(C)[C@@H](C)C(=O)N2CC[C@H]2C(=O)N1C [Compound 1193] ([NEtLeu]I[NMeA][Aze][NMeS](Propyl)[Sar][hPhe(3-Cl-4-CF3)]P[Ac5c][NMeGly(cPent)][NMeD]-{3Oxa8azabicyclo(3.2.1)octane}; lactam N-11)	2.1

Could you now consider this next molecule?
Inquiry: Fill in the blank: the reported IC50 of CC[C@H](C)[C@@H]1NC(=O)[C@H](C)N(C)C(=O)C[C@@H](C(=O)N2CCCCC2)N(C)C(=O)[C@H](C(C)C)N(C)C(=O)C2(CCCC2)NC(=O)[C@H](Cc2cccc(Cl)c2)N(C)C(=O)[C@H](CCc2ccc(C(F)(F)F)c(Cl)c2)NC(=O)CN(C)C(=O)[C@H](CC2CCCCC2)N(C)C(=O)CN(C)C(=O)CN(C)C1=O [Compound 282] ([NMeA]I[Sar][Sar][NMeCha][Sar][hPhe(3-Cl-4-CF3)][NMePhe(3-Cl)][Ac5c][NMeV][NMeD]-Piperidide; lactam N-11) is ____.
Reply text: 94
